Test system: ANGIOTENSIN II VASOPRESSOR RESPONSE
Experiment: AII Challenge: blockade of angiotensin II vasopressor response in conscious SHR
Type: in vivo, rat (Conscious Male Okamoto-Aoki SHR)
Conditions: SHR n=2; 3 mg/kg i.v.; AII 0.1 mcg/kg IV; 180 min post dose
Quick reference for Average Change (systolic blood pressure response to AII) among some molecules
I only need the number, in mmHg, no unit after it.

Solved cases (2 shown):
MOLECULE	TARGET ENTITY	UNIT	RECORDED VALUE
CCCCc1nc2ccc(C(O)C3CCCN(C)C3=O)cc2c(=O)n1Cc1ccc(-c2ccccc2-c2nn[nH]n2)cc1 (single isomer, unassigned; isomer 1) [Example 37]	ANGIOTENSIN II VASOPRESSOR RESPONSE	mmHg	11
CCCCc1nc2ccc(C(C)(O)C3CCN(C)C3=O)cc2c(=O)n1Cc1ccc(-c2ccccc2-c2nn[nH]n2)cc1 (single isomer, unassigned; isomer 2) [Example 48]	ANGIOTENSIN II VASOPRESSOR RESPONSE	mmHg	22.5

response.value for CCCCc1nc2ccc(C(OC)C3CCCO3)cc2c(=O)n1Cc1ccc(-c2ccccc2-c2nn[nH]n2)cc1 (single isomer, unassigned; isomer 1) [Example 23] (field: Average Change (systolic blood pressure response to AII)) = 10

response.value for CCCCc1nc2ccc(C(O)C3CCN(C)C3=O)cc2c(=O)n1Cc1ccc(-c2ccccc2-c2nn[nH]n2)cc1 (single isomer, unassigned; isomer 1) [Example 32] (field: Average Change (systolic blood pressure response to AII)) = 20

response.value for CCCCc1nc2ccc(C(OC)C3CCCO3)cc2c(=O)n1Cc1ccc(-c2ccccc2-c2nn[nH]n2)cc1 (single isomer, unassigned) [Example 24] (field: Average Change (systolic blood pressure response to AII)) = 7.5

* * *

System: ANGIOTENSIN II VASOPRESSOR RESPONSE
Experiment: AII Challenge: blockade of angiotensin II vasopressor response in conscious SHR
Format: in vivo, rat (Conscious Male Okamoto-Aoki SHR)
Conditions: SHR n=2; 3 mg/kg i.v.; AII 0.1 mcg/kg IV; 90 min post dose
Quick reference for % Inhibition of AII vasopressor response among some compounds
I only need the number, in %, no unit after it.

Solved cases (5 shown):
COMPOUND	% Inhibition of AII vasopressor response [%]
CCCCc1nc2ccc(C(O)C3CCCS3(=O)=O)cc2c(=O)n1Cc1ccc(-c2ccccc2-c2nn[nH]n2)cc1 (single isomer, unassigned; isomer 1) [Example 15]	54
CCCCc1nc2ccc(C(OC)C3CCCO3)cc2c(=O)n1Cc1ccc(-c2ccccc2-c2nn[nH]n2)cc1 (single isomer, unassigned) [Example 24]	87
CCCCc1nc2ccc(C(O)C3CCN(C)C3=O)cc2c(=O)n1Cc1ccc(-c2ccccc2-c2nn[nH]n2)cc1 (single isomer, unassigned; isomer 1) [Example 32]	88
CCCCc1nc2ccc(C(C)(O)C3CCN(C)C3=O)cc2c(=O)n1Cc1ccc(-c2ccccc2-c2nn[nH]n2)cc1 (single isomer, unassigned; isomer 2) [Example 48]	95
CCCCc1nc2ccc(C(O)C3CCCS3(=O)=O)cc2c(=O)n1Cc1ccc(-c2ccccc2-c2nn[nH]n2)cc1 (single isomer, unassigned; isomer 2) [Example 16]	36

Let us examine a further case.
response.value for CCCCc1nc2ccc(C(OC)C3CCCO3)cc2c(=O)n1Cc1ccc(-c2ccccc2-c2nn[nH]n2)cc1 (single isomer, unassigned; isomer 1) [Example 23] (field: % Inhibition of AII vasopressor response) = 79

* * *

Tested on: ANGIOTENSIN II VASOPRESSOR RESPONSE
Test: AII Challenge: blockade of angiotensin II vasopressor response in conscious SHR
Format: in vivo, rat (Conscious Male Okamoto-Aoki SHR)
Conditions: SHR n=2; 3 mg/kg i.v.; AII 0.1 mcg/kg IV; 30 min post dose
ASSAY READOUT: Average Change (systolic blood pressure response to AII) (mmHg)
I only need the number, in mmHg, no unit after it.

Solved cases (2 shown):
COMPOUND	UNIT	RECORDED VALUE
CCCCc1nc2ccc(C(C)(O)C3CCN(C)C3=O)cc2c(=O)n1Cc1ccc(-c2ccccc2-c2nn[nH]n2)cc1 (single isomer, unassigned; isomer 1) [Example 47]	mmHg	11.5
CCCCc1nc2ccc(C(O)C3CCN(C)C3=O)cc2c(=O)n1Cc1ccc(-c2ccccc2-c2nn[nH]n2)cc1 (single isomer, unassigned; isomer 1) [Example 32]	mmHg	0

response.value for CCCCc1nc2ccc(C(C)(O)C3CCCN(C)C3=O)cc2c(=O)n1Cc1ccc(-c2ccccc2-c2nn[nH]n2)cc1 (single isomer, unassigned; isomer 2) (field: Average Change (systolic blood pressure response to AII)) = 12.5

response.value for CCCCc1nc2ccc(C(O)C3CCN(C)C3=O)cc2c(=O)n1Cc1ccc(-c2ccccc2-c2nn[nH]n2)cc1 (single isomer, unassigned; isomer 2) [Example 33] (field: Average Change (systolic blood pressure response to AII)) = 7.5

response.value for CCCCc1nc2ccc(C(C)(O)C3CCN(C)C3=O)cc2c(=O)n1Cc1ccc(-c2ccccc2-c2nn[nH]n2)cc1 (single isomer, unassigned; isomer 2) [Example 48] (field: Average Change (systolic blood pressure response to AII)) = 25

* * *

Tested on: ANGIOTENSIN II VASOPRESSOR RESPONSE
Assay: AII Challenge: blockade of angiotensin II vasopressor response in conscious SHR
Type: in vivo, rat (Conscious Male Okamoto-Aoki SHR)
Details: SHR n=2; 3 mg/kg p.o.; AII 0.05 mcg/kg IV; 60 min post dose
Entries whose Average Change (systolic blood pressure response to AII) is below 30 mmHg take yes; entries at or above 30 mmHg take no.

Below, 6 compounds whose answers are already recorded.
COMPOUND	CATEGORY
CCCCc1nc2ccc(C(O)C3CCN(C)C3=O)cc2c(=O)n1Cc1ccc(-c2ccccc2-c2nn[nH]n2)cc1 (single isomer, unassigned; isomer 2) [Example 33]	yes
CCCCc1nc2ccc(C(OC)C3CCCN(C)C3=O)cc2c(=O)n1Cc1ccc(-c2ccccc2-c2nn[nH]n2)cc1 (single isomer, unassigned; isomer 2) [Example 43]	yes
CCCCc1nc2ccc(C(OC)C3CCCN(C)C3=O)cc2c(=O)n1Cc1ccc(-c2ccccc2-c2nn[nH]n2)cc1 (single isomer, unassigned; isomer 1) [Example 42]	no
CCCCc1nc2ccc(C(O)C3CCN(C)C3=O)cc2c(=O)n1Cc1ccc(-c2ccccc2-c2nn[nH]n2)cc1 (single isomer, unassigned; isomer 1) [Example 32]	yes
CCCCc1nc2ccc(C(OC)C3CCCO3)cc2c(=O)n1Cc1ccc(-c2ccccc2-c2nn[nH]n2)cc1 (single isomer, unassigned; isomer 1) [Example 23]	no
CCCCc1nc2ccc(C(OC)C3CCCO3)cc2c(=O)n1Cc1ccc(-c2ccccc2-c2nn[nH]n2)cc1 (single isomer, unassigned) [Example 24]	yes

Please check: Average Change (systolic blood pressure response to AII) for CCCCc1nc2ccc(C(O)C3CCCN(C)C3=O)cc2c(=O)n1Cc1ccc(-c2ccccc2-c2nn[nH]n2)cc1 (single isomer, unassigned; isomer 2) [Example 38] , strictly under 30 mmHg or not?
yes

Please check: Average Change (systolic blood pressure response to AII) for CCCCc1nc2ccc(C(O)C3CCCN(C)C3=O)cc2c(=O)n1Cc1ccc(-c2ccccc2-c2nn[nH]n2)cc1 (single isomer, unassigned; isomer 1) [Example 37] , strictly under 30 mmHg or not?
yes

* * *

Quick reference for Average Change (systolic blood pressure response to AII) among some compounds
Test system: ANGIOTENSIN II VASOPRESSOR RESPONSE
Assay: AII Challenge: blockade of angiotensin II vasopressor response in conscious SHR
Format: in vivo, rat (Conscious Male Okamoto-Aoki SHR)
Settings: SHR n=2; 3 mg/kg i.v.; AII 0.05 mcg/kg IV; 180 min post dose
I only need the number, in mmHg, no unit after it.

COMPOUND	RECORDED VALUE
CCCCc1nc2ccc(C(O)C3CCN(C)C3=O)cc2c(=O)n1Cc1ccc(-c2ccccc2-c2nn[nH]n2)cc1 (single isomer, unassigned; isomer 2) [Example 33]	7.5

response.value for CCCCc1nc2ccc(C(O)C3CCN(C)C3=O)cc2c(=O)n1Cc1ccc(-c2ccccc2-c2nn[nH]n2)cc1 (single isomer, unassigned; isomer 1) [Example 32] (field: Average Change (systolic blood pressure response to AII)) = 7.5

response.value for CCCCc1nc2ccc(C(C)(O)C3CCN(C)C3=O)cc2c(=O)n1Cc1ccc(-c2ccccc2-c2nn[nH]n2)cc1 (single isomer, unassigned; isomer 1) [Example 47] (field: Average Change (systolic blood pressure response to AII)) = 10

* * *

Quick reference for Average Change (systolic blood pressure response to AII) among some compounds
System: ANGIOTENSIN II VASOPRESSOR RESPONSE
Test: AII Challenge: blockade of angiotensin II vasopressor response in conscious SHR
Type: in vivo, rat (Conscious Male Okamoto-Aoki SHR)
Conditions: SHR n=2; 3 mg/kg i.v.; AII 0.05 mcg/kg IV; 60 min post dose
I only need the number, in mmHg, no unit after it.

Solved cases (2 shown):
COMPOUND	RECORDED VALUE
CCCCc1nc2ccc(C(C)(O)C3CCCN(C)C3=O)cc2c(=O)n1Cc1ccc(-c2ccccc2-c2nn[nH]n2)cc1 (single isomer, unassigned; isomer 2) [Example 53]	5
CCCCc1nc2ccc(C(O)C3CCCS3(=O)=O)cc2c(=O)n1Cc1ccc(-c2ccccc2-c2nn[nH]n2)cc1 (single isomer, unassigned; isomer 1) [Example 15]	11

Let us examine a further case.
response.value for CCCCc1nc2ccc(C(C)(O)C3CCN(C)C3=O)cc2c(=O)n1Cc1ccc(-c2ccccc2-c2nn[nH]n2)cc1 (single isomer, unassigned; isomer 1) [Example 47] (field: Average Change (systolic blood pressure response to AII)) = 10
